tested on: A549; test: NCI tumour cell line growth inhibition, 48 h
Activity calls are given as the source filed them. Rule as the data show it: active = GI50 up to about 1.1 µM and inactive = higher.
Outcomes: 1 (active), 0 (inactive)

molecule	target.or.system	class
CC(=O)Nc1n[n+]([O-])c2cc(C)ccc2[n+]1[O-]	A549	0
Cc1nc2c(nc1C)C(=O)c1ccccc1C2=O	A549	0
N#CCC1COc2ccccc2O1 (stereo not given)	A549	0
N#CSC/C(Cl)=C/Cl.N#CSC/C(Cl)=C\Cl	A549	0
NC(CCC(=O)O)C(=O)N1CCN(c2nc(N3CCCC3)c3nc(Cl)c(NCc4ccccc4)nc3n2)CC1 (stereo not given)	A549	0
CN(C)CCC(=O)N1C/C(=C\c2ccc(Cl)c(Cl)c2)C(=O)/C(=C/c2ccc(Cl)c(Cl)c2)C1	A549	1
COc1ccc(C2SC(C)C(=O)N2c2nc(-c3nc(-c4ccc(Cl)cc4)cs3)cs2)cc1 (stereo not given)	A549	0
Cc1cccc2c1C(=O)/C(=C/c1ccccc1C(=O)O)C2	A549	0
O=[N+]([O-])c1ccc([I+]c2ccccc2)cc1	A549	0
COC(=O)c1sc2c(Cl)c(Cl)sc2c1Cl	A549	0
Cc1ccc(-c2cc(-c3ccccc3)nc(N)n2)c(O)c1	A549	0
CC12CCCCC1=C(F)C(F)(F)S2 (stereo not given)	A549	0
Cc1cccc(-c2cc(O)c3ccc(C)nc3n2)c1	A549	1
C=CCC1OC(C)(C)Oc2ccc(OCOCCOC)cc21 (stereo not given)	A549	0
COc1ccc(C[C@@H]2OC3(C=CC(=O)C=C3)O[C@H]2Cc2ccc(OC)cc2)cc1	A549	0
